B1: Zinc finger homeobox protein 4, residues 2183 to 2238; numbered along this chain, Q86UP3 (parent)
chain: SSRTRFTDYQLRVLQDFFDTNAYPKDDEIEQLSTVLNLPTRVIVVWFQNARQKARK

Variants of: B1
assay.text: abundance fitness (aPCA) (normalised: wild type 0, dead -1); higher = more abundant; growth selection in yeast, the domain comes from the species named
cond: Homo sapiens
# abundance fitness annotations
measured.metric: abundance fitness

• Q15M = 0.058
• D16K = -0.108
• D19G = -0.032
• V35F = -0.206
• N21C = 0.346
• D19N = -0.087
• F18G = -0.711
